# assay-system: T1, CRBN, Q96SW2;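 note: pooled lentiviral library of zinc finger degron-EGFP fusions in mCherry-positive Jurkat cells, FACS-sorted after compound exposure, with degron abundance counted by next-generation sequencing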
# T1 chain: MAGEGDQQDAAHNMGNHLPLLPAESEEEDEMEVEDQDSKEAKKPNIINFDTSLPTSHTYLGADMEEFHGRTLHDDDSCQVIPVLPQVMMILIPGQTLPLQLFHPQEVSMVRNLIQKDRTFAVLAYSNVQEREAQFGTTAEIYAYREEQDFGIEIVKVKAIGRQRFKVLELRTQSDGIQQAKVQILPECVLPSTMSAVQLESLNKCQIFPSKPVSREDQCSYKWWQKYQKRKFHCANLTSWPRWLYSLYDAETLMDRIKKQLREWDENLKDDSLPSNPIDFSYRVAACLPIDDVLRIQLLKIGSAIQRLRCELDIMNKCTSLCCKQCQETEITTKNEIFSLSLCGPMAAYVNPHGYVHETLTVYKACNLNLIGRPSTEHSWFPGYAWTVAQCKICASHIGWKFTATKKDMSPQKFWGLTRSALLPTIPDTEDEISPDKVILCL
# assay: log2 fold change of degron read counts, EGFP-low vs EGFP+ sorted cells (limma voom), compound-induced degradation; higher = more compound-induced degradation of the degron-EGFP fusion; degrons are variants of IKZF1/3 zinc finger 2; compound dose not given here
# particulars: Jurkat; 18 h; compound: thalidomide
In all, about 8,300 sequences were measured (“log2 fold change of degron read counts, EGFP-low vs EGFP+ sorted cells (limma voom), compound-induced degradation”: median about -1.1, highest 2% from about 3.2 on). Shown is part of a subset that was picked to be rich in the highest values.
Assign log2 fold change of degron read counts to each entry below.
Lab note: jot down the number only; don't add units.

Which value of log2 fold change of degron read counts has been reported for FHCPICGRNFTQKGNLLRHIKL [46F_47H_49P_50I_52G_53R_54N_55F_67L_, Q9UKT9] in the records?
-0.527

Next: LFCNQCGFNCTQKGNLLRHIKL [46L_47F_49N_50Q_52G_53F_54N_55C_67L_, Q9UKT9]
-1.45

Next: FICPICGRVFTQKGNLLRHIKL [46F_47I_49P_50I_52G_53R_54V_55F_67L_, Q9UKT9]
0.637

Next: LACEICGFFCTQKGNLLRHIKL [46L_47A_49E_50I_52G_53F_54F_55C_67L_, Q9UKT9]
0.329

Next: FGCPVCGAGFTQKGNLLRHIKL [46F_47G_49P_50V_52G_53A_54G_55F_67L_, Q9UKT9]
0.332

Next: FYCPVCGAGFTQKGNLLRHIKL [46F_47Y_49P_50V_52G_53A_54G_55F_67L_, Q9UKT9]
-0.0832

Next: FTCPQCGATFTQKGNLLRHIKL [46F_47T_49P_50Q_52G_53A_54T_55F_67L_, Q9UKT9]
0.676

Next: FGCEVCGASFTQKGNLLRHIKL [46F_47G_49E_50V_52G_53A_54S_55F_67L_, Q9UKT9]
0.816

Next: FHCPICGHPFTQKGNLLRHIKL [46F_47H_49P_50I_52G_53H_54P_55F_67L_, Q9UKT9]
-0.0778

Next: FTCEVCGASFTQKGNLLRHIKL [46F_47T_49E_50V_52G_53A_54S_55F_67L_, Q9UKT9]
3.12

Next: FICNQCGAAFTQKGNLLRHIKL [46F_47I_49N_50Q_52G_53A_54A_55F_67L_, Q9UKT9]
-0.649

Next: FECEICGHSFTQKGNLLRHIKL [46F_47E_49E_50I_52G_53H_54S_55F_67L_, Q9UKT9]
-3.14

Next: FWCNVCGASFTQKGNLLRHIKL [46F_47W_49N_50V_52G_53A_54S_55F_67L_, Q9UKT9]
-0.303

Next: FECEVCGASFTQKGNLLRHIKL [46F_47E_49E_50V_52G_53A_54S_55F_67L_, Q9UKT9]
2.32

Next: FDCEVCGASFTQKGNLLRHIKL [46F_47D_49E_50V_52G_53A_54S_55F_67L_, Q9UKT9]
0.979
